system: PXR:RXRa (NR concentration 270 nM, RXRa partner concentration 90 nM); test: PBM binding z-score (relative to random genomic background probes); higher = stronger binding; sequences stand for … in GC…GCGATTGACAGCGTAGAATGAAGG
parameterMeasured: PBM binding z-score

Lab book: PBM binding z-score of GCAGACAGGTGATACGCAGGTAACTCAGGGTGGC noted as -0.424

The sequence listed as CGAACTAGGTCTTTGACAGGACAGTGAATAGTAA has a reported PBM binding z-score of -0.285

The reported PBM binding z-score of the sequence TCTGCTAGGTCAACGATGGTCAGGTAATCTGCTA was 1.61

Entry under test: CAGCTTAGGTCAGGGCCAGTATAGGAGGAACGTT . Its PBM binding z-score was 0.726

PBM binding z-score measured on TCTTGTAGATCAGCAGGAGGTTAAGAAAGATCGA = 0.907

In plain terms, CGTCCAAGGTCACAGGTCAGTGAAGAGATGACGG has a documented PBM binding z-score of 4.99

Per the record, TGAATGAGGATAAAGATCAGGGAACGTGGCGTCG has PBM binding z-score of -0.614

Looking up ACAATTAGTTGAGACGAGGGCAACCGATAGGTTG , I see its PBM binding z-score listed as 1.37

PBM binding z-score reported for this sequence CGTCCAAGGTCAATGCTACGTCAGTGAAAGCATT : 3.7

In plain terms, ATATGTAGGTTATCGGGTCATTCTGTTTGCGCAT has a documented PBM binding z-score of 3.48

// sample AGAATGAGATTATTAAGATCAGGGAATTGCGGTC , its PBM binding z-score was -0.605

Form field PBM binding z-score, entry ACTTACGGGTCAACGTGGTTATAGCACGCGTATA : 3.45

Quick note, PBM binding z-score for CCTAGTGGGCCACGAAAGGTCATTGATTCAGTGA landed at 5.35

// PBM binding z-score value for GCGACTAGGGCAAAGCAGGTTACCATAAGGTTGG : 0.293

// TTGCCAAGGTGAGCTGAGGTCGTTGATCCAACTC : PBM binding z-score value = 4.61

Form: sequence = CCTACTGGGCCATAGGTCATTGATTCCAATGCTC ; PBM binding z-score = 2.1
